Origin of values: a flash point compilation (Sun et al. 2020)

Collected flash point values appear next to each entry.
Response body: numeric value in °C, unit text excluded.

compound="CC(C)CCOCCC(C)C [1-isopentyloxy-3-methylbutane]" property_measured="flash point" unit_of_measurement=°C reported=46.00

Prompt line: Need flash point of CCCCCC(C)N (stereo unspecified) [heptan-2-amine] , thanks.
Response line: 54.00

Prompt line: I have this compound here, CCCCCCCCO [octan-1-ol] , and I need its recorded flash point.
Response line: 90.56

====

Structures can show the parent of a compound that is named as a salt.
PROPERTY_MEASURED: flash point (°C)
Give your result in °C as a bare value.

Consider the following illustrative entries.
compound="OCCOCCO [2-(2-hydroxyethoxy)ethanol]" property_measured="flash point" reported=143.00
compound=C1CCCCC1 property_measured="flash point" reported=-20.00
compound="C#CCOc1cccc(-c2cc(C(F)(F)F)nc(S(=O)CC)n2)c1 (stereo unspecified)" property_measured="flash point" reported=240.00
compound="c1cc(OCC2CO2)cc(OCC2CO2)c1 (stereo unspecified) [2-[[3-(oxiran-2-ylmethoxy)phenoxy]methyl]oxirane]" property_measured="flash point" reported=177.00
compound="CCCCOCCOCCSC#N [2-(2-butoxyethoxy)ethyl thiocyanate]" property_measured="flash point" reported=52.00
compound="ClC1=C(Cl)C2(Cl)C3C(Cl)C(Cl)CC3C1(Cl)C2(Cl)Cl (stereo unspecified) [1,3,4,7,8,9,10,10-octachlorotricyclo[5.2.1.02,6]dec-8-ene]" property_measured="flash point" reported=107.00

Prompt line: Given the entry CC(C)(C)OO [2-hydroperoxy-2-methylpropane] , report its measured flash point.
Response line: 27.00

Prompt line: Entry under review: CC(O)c1ccccc1 (stereo unspecified) . Reported flash point?
Response line: 85.00

Prompt line: Given the compound C=C(C)C(=O)OCCNC(C)(C)C [2-(tert-butylamino)ethyl 2-methylprop-2-enoate] , what is its reported flash point?
Response line: 96.00

Prompt line: Form field: reported flash point of C=C(C)C(=O)OCC(CC)CCCC (stereo unspecified) [2-ethylhexyl 2-methylprop-2-enoate]
Response line: 92.00

Prompt line: I would be grateful if you could share the reported flash point for CCCCC(CC)COC(=O)c1ccccc1C(=O)OCC(CC)CCCC (stereo unspecified) [bis(2-ethylhexyl) benzene-1,2-dicarboxylate] .
Response line: 207.00

Prompt line: Fill blank: measured flash point of the compound C=CCCCCC=C is ____.
Response line: 9.00

Prompt line: // flash point lookup, key: C1=CC2C=CC1C2 [bicyclo[2.2.1]hepta-2,5-diene]
Response line: -21.00

Prompt line: Requested field: flash point. Item: CCOC(=O)NC [ethyl N-methylcarbamate]
Response line: 73.00

Prompt line: For CC(O)COCC(C)O (stereo unspecified) [1-(2-hydroxypropoxy)propan-2-ol] , what is its reported flash point?
Response line: 138.00

Prompt line: Form field: reported flash point of O=C(OOC(=O)c1ccccc1)c1ccccc1 [benzoyl benzenecarboperoxoate]
Response line: 80.00

Prompt line: May I ask what flash point has been recorded for CCCCC(=O)CC ?
Response line: 46.00

Prompt line: Given the compound C=C(C#N)C(=O)OCC [ethyl 2-cyanoprop-2-enoate] , what is its reported flash point?
Response line: 82.00

Prompt line: Recorded flash point for FC(F)=C(F)Cl , please?
Response line: -27.00

Prompt line: Recorded flash point for CCOS(=O)(=O)OCC [diethyl sulfate] , please?
Response line: 104.00

Prompt line: Return reported flash point; argument: Cc1ccccc1F
Response line: 13.00
